Ref: patent US20260146071A1

# measured-on: CCR2 (Homo sapiens)
# Construct: endogenous in cells; host or cells: THP-1
# Sequence (P41597 1-360 isoform P41597-2): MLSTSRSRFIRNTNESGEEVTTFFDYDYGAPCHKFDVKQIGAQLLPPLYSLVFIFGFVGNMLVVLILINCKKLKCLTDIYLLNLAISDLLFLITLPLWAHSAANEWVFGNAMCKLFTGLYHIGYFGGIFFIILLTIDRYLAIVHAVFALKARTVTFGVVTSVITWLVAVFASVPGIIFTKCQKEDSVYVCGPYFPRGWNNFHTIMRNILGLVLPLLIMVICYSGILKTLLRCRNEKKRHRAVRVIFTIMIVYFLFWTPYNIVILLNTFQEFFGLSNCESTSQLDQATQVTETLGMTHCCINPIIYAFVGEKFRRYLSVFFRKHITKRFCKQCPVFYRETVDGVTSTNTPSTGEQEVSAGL
# method-notes: CCR2 inhibitory potency assay, calcium flux method, THP-1 cells stimulated with 100 nM CCL2
# Format: cell-based
# assay-context: Table 4; CCR2 inhibition; read-out: mean IC50
# Description: CCR2 inhibitory potency assay was determined using the calcium flux method. Ca^2+ flux measurements were performed using an FDSS micro-cell device ([…]). On the day of the experiment, THP-1 cells were seeded 20000 cells/well) to wells of black-walled clear-bottom 384-well plates. […]
Where no end group is shown, it is not given here. [ ]: non-standard residue; d: D form. Nle = CCCC[C@H](N)C(=O)O
The following substances are listed with their measured IC50 values.
Entry rule: numbers only, all in pM.

Below are worked cases with known answers.
CCL2 variant, N-terminal FTNPTWDTGT (SEQ ID NO: 96), human CCL2 11-76 Met64Nle core (not fully specified (C-terminus); also: followed C-terminally by human CCL2 11-76 core with Met64Nle) [3P21-CCL2]
1280
CCL2 variant, N-terminal FTNPTWKPYA (SEQ ID NO: 91), human CCL2 11-76 Met64Nle core (not fully specified (C-terminus); also: followed C-terminally by human CCL2 11-76 core with Met64Nle) [3P16-CCL2]
1230
CCL2 variant, N-terminal FTNPTWDQFT (SEQ ID NO: 86), human CCL2 11-76 Met64Nle core [3P11-CCL2]
703
CCL2 variant, N-terminal FTNPTWRPST (SEQ ID NO: 80), human CCL2 11-76 Met64Nle core (not fully specified (C-terminus); also: followed C-terminally by human CCL2 11-76 core with Met64Nle) [3P5-CCL2]
2860
CCL2 variant, N-terminal FTNPTWDHFV (SEQ ID NO: 88), human CCL2 11-76 Met64Nle core [3P13-CCL2]
437

Tell me measured IC50 for CCL2 variant, N-terminal FTNPTWDRFT (SEQ ID NO: 87), human CCL2 11-76 Met64Nle core (not fully specified (C-terminus); also: followed C-terminally by human CCL2 11-76 core with Met64Nle) [3P12-CCL2] please.
625

Output measured IC50 for this item: CCL2 variant, N-terminal FTNPTWKPST (SEQ ID NO: 90), human CCL2 11-76 Met64Nle core (not fully specified (C-terminus); also: followed C-terminally by human CCL2 11-76 core with Met64Nle) [3P15-CCL2]
1530

Indicate its recorded IC50; the substance in question is CCL2 variant, N-terminal FTNPTWAPLQ (SEQ ID NO: 83), human CCL2 11-76 Met64Nle core [3P8-CCL2]
892

Give recorded IC50. CCL2 variant, N-terminal FTNPTWDSVT (SEQ ID NO: 98), human CCL2 11-76 Met64Nle core (not fully specified (C-terminus); also: followed C-terminally by human CCL2 11-76 core with Met64Nle) [3P23-CCL2]
678

Output IC50 of CCL2 variant, N-terminal FP(Nle)DGWVSRT (SEQ ID NO: 124), human CCL2 11-76 Met64Nle core (FP[Nle]DGWVSRT; also: fused to human CCL2 11-76 core with Met64Nle) [4P14-CCL2]
965
